Target: UniProt P07943
Test: In vitro inhibitory activity against partially purified rat lens Aldose reductase at a dose of 5e-7M
Property: inhibition (%)

Reference set, count: 5
[[record]]
smiles = "O=C(O)CN1C(=O)C(=O)N(CCCc2ccccc2)C1=O"
numeric_readout = 16

[[record]]
smiles = "Cc1ccc(CN2C(=O)C(=O)N(CC(=O)O)C2=O)cc1"
numeric_readout = 30

[[record]]
smiles = "O=C(O)CN1C(=O)C(=O)N(CCc2ccccc2)C1=O"
numeric_readout = 30

[[record]]
smiles = "O=C(O)CN1C(=O)C(=O)N(Cc2ccccc2)C1=O"
numeric_readout = 17

[[record]]
smiles = "O=C(O)CN1C(=O)C(=O)N(CCc2ccc(Cl)c(Cl)c2)C1=O"
numeric_readout = 57


a = O=C(O)CN1C(=O)C(=O)N(CCCCc2ccccc2)C1=O
b = O=C(O)CN1C(=O)C(=O)N(Cc2cccc([N+](=O)[O-])c2)C1=O
c = O=C(O)CN1C(=O)C(=O)N(CCc2ccc(Br)cc2)C1=O
Arrange the 3 entries by inhibition so the values rise. Use the labels to give the ranking in the order requested.
a, c, b

---

Molecular target: Aldo-keto reductase family 1 member B1 (Rattus norvegicus)
Test: In vitro inhibitory activity against partially purified rat lens Aldose reductase at a dose of 5e-7M
Property: inhibition (%)

Reference set, count: 3
[[record]]
smiles = "CCOC(=O)CN1C(=O)C(=O)N(Cc2cccc([N+](=O)[O-])c2)C1=O"
property = "inhibition"
readout_unit = "%"
numeric_readout = 31

[[record]]
smiles = "COc1cccc(CN2C(=O)C(=O)N(CC(=O)O)C2=O)c1"
property = "inhibition"
readout_unit = "%"
numeric_readout = 44

[[record]]
smiles = "O=C(O)CN1C(=O)C(=O)N(Cc2ccc(Cl)cc2)C1=O"
property = "inhibition"
readout_unit = "%"
numeric_readout = 56


a = O=C(O)CN1C(=O)C(=O)N(Cc2ccc(Cl)c(Cl)c2)C1=O
b = Cc1ccc(CCN2C(=O)C(=O)N(CC(=O)O)C2=O)cc1
c = O=C(O)CN1C(=O)C(=O)N(Cc2ccc(F)cc2)C1=O
Sort these compounds on inhibition so the largest reading comes first. Use the labels to give the ranking in the order requested.
a, b, c

---

Target: UniProt P07943
Test: In vitro inhibitory activity against partially purified rat lens Aldose reductase at a dose of 5e-7M
Property: inhibition (%)

Reference set, count: 4
[[record]]
smiles = "O=C(O)CN1C(=O)C(=O)N(Cc2ccccc2Cl)C1=O"
assay_target = "UniProt P07943"
property = "inhibition"
numeric_readout = 32

[[record]]
smiles = "O=C(O)CN1C(=O)C(=O)N(Cc2cccc(Cl)c2)C1=O"
assay_target = "UniProt P07943"
property = "inhibition"
numeric_readout = 31

[[record]]
smiles = "COc1ccc(CN2C(=O)C(=O)N(CC(=O)O)C2=O)cc1OC"
assay_target = "UniProt P07943"
property = "inhibition"
numeric_readout = 29

[[record]]
smiles = "COc1ccc(CCN2C(=O)C(=O)N(CC(=O)O)C2=O)cc1OC"
assay_target = "UniProt P07943"
property = "inhibition"
numeric_readout = 42


1 = O=C(O)CN1C(=O)C(=O)N(CCc2ccccc2Cl)C1=O
2 = COc1ccccc1CN1C(=O)C(=O)N(CC(=O)O)C1=O
Please let me know which one, 1 or 2 , has a lower measured inhibition value. Give the label under which the chosen entry appears.
2
(2: 16%, 1: 37%)
